- assayedTarget: CAMKK2 kinase domain (132–470) (Homo sapiens, UniProt Q96RR4)
- Construct: CAMKK2 kinase domain (132–470) was cloned in a pNIC-Bio2 vector; 10xHis tag followed by a TEV site (N, cleaved yes)
- Sequence (Q96RR4 132-470): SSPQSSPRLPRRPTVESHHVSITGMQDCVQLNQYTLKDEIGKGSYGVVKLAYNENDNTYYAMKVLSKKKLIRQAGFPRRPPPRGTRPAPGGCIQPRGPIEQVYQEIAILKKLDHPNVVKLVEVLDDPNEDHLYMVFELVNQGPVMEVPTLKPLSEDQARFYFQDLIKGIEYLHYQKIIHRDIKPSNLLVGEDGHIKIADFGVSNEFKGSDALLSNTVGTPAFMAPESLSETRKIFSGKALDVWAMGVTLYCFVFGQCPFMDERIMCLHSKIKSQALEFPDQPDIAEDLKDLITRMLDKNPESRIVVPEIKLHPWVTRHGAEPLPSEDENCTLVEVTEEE
- assayComment: CaMKK2B TR-FRET tracer displacement assay
- statedConditions: CaMKK2, displacement of tracer 236, average of 2 experiments
assayMetric: IC50

[[record]]
smilesentry = "Cc1ccc(Nc2nsnc(Nc3ccc(C#N)cc3)c2=O)cc1O"
assayedtarget = "CAMKK2 kinase domain (132–470) (Homo sapiens, UniProt Q96RR4)"
result = "> 50 µM"

[[record]]
smilesentry = "Cc1ccc(Nc2nsnc(Nc3ccc(C(N)=O)cc3)c2=O)cc1O"
assayedtarget = "CAMKK2 kinase domain (132–470) (Homo sapiens, UniProt Q96RR4)"
result = "> 50 µM"


Read the next record carefully.
Please report the recorded IC50 for Cc1ccc(Nc2nsnc(Nc3ccccc3CO)c2=O)cc1O . > 50 µM
